assay.target: Epidermal growth factor receptor (Homo sapiens)
assay.name: Inhibition of the phosphorylation of a random polyglutamic acid/tyrosine copolymer by human epidermal growth factor receptor(EGFR) prepared from human A431 carcinoma cells
pIC50: −log10 of the molar value.
experimental.endpoint: pIC50

structure | pIC50
Brc1cccc(Nc2ncnc3cc4[nH]cc(CN5CCOCC5)c4cc23)c1 | 8.32
Brc1cccc(Nc2ncnc3cc4c(cnn4CCCN4CCOCC4)cc23)c1 | 8.06
CN(C)CCn1ccc2cc3c(Nc4cccc(Br)c4)ncnc3cc21 | 7.39

1 = OCCN(CCO)Cc1c[nH]c2cc3ncnc(Nc4cccc(Br)c4)c3cc12
2 = CN(C)CCN(C)Cc1c[nH]c2cc3ncnc(Nc4cccc(Br)c4)c3cc12
Prompt: Kindly identify the item with the lower pIC50 figure among these two: 1 and 2 // return label of chosen record
Response: 2
(2: 8.12, 1: 8.46)

* * *

assay.target: Epidermal growth factor receptor (Homo sapiens, UniProt P00533)
Sequence (P00533 whole entry): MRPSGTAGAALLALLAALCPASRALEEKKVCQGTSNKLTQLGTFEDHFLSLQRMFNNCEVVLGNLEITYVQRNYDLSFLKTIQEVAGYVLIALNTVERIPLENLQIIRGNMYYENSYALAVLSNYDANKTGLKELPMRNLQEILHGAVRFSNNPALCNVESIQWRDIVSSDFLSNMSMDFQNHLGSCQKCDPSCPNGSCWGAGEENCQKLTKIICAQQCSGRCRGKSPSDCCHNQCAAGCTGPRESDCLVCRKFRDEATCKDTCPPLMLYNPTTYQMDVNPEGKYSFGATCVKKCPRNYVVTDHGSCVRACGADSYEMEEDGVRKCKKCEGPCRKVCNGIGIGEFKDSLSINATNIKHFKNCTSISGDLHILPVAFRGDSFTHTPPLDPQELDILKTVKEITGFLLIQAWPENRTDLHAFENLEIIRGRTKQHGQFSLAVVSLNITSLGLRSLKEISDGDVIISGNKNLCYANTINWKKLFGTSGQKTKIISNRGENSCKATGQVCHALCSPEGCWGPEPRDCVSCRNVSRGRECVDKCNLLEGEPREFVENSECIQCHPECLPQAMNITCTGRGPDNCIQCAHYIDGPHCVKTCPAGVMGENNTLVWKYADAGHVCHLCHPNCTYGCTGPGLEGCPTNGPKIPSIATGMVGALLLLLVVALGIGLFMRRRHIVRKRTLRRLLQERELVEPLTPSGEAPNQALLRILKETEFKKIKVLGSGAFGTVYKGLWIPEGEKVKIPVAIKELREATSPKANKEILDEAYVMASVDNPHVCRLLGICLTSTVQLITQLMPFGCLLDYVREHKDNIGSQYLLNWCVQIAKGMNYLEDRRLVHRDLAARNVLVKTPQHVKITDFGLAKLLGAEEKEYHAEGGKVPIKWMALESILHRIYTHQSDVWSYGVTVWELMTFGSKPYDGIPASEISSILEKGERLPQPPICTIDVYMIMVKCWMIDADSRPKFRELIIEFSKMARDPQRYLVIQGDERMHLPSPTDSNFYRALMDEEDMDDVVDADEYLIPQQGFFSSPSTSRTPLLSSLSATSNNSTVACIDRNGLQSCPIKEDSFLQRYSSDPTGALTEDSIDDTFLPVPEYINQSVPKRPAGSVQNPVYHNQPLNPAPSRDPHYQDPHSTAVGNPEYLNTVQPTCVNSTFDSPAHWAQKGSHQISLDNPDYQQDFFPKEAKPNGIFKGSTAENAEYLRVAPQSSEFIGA
assay.name: Inhibition of the phosphorylation of a random polyglutamic acid/tyrosine copolymer by human epidermal growth factor receptor(EGFR) prepared from human A431 carcinoma cells
pIC50: −log10 of the molar value.
experimental.endpoint: pIC50

molecule | assay.target | pIC50
COC(=O)CN(C)Cc1c[nH]c2cc3ncnc(Nc4cccc(Br)c4)c3cc12 | Epidermal growth factor receptor (Homo sapiens, UniProt P00533) | 8.47

a = CN(C)CCCn1ccc2cc3c(Nc4cccc(Br)c4)ncnc3cc21
b = O=C(O)Cn1ccc2cc3c(Nc4cccc(Br)c4)ncnc3cc21
Prompt: // pick min by pIC50: a , b Output the label that corresponds to your choice.
Response: a

A = OCC(O)Cn1ncc2cc3c(Nc4cccc(Br)c4)ncnc3cc21 (stereo not drawn)
B = OCC(O)Cn1ccc2cc3c(Nc4cccc(Br)c4)ncnc3cc21 (stereo not drawn)
C = Cn1ccc2cc3c(Nc4cccc(Br)c4)ncnc3cc21
Prompt: List by increasing pIC50. The reply should contain the labels ordered as requested.
Response: A, B, C

* * *

assay.target: Epidermal growth factor receptor (Homo sapiens)
assay.name: Inhibition of autophosphorylation of epidermal growth factor receptor prepared from human A431 carcinoma cells.
pIC50: −log10 of the molar value.
experimental.endpoint: pIC50

Worked cases, answers included:
compound | observed
OCC(O)Cn1ccc2cc3c(Nc4cccc(Br)c4)ncnc3cc21 (stereo not drawn) | 7.31
CN(C)CCn1ccc2cc3c(Nc4cccc(Br)c4)ncnc3cc21 | 6.84
Brc1cccc(Nc2ncnc3cc4[nH]ccc4cc23)c1 | 7.66
Brc1cccc(Nc2ncnc3cc4[nH]ncc4cc23)c1 | 7.70
COC(=O)CN(C)Cc1c[nH]c2cc3ncnc(Nc4cccc(Br)c4)c3cc12 | 8.02

I = Cn1ncc2cc3c(Nc4cccc(Br)c4)ncnc3cc21
II = Cn1ccc2cc3c(Nc4cccc(Br)c4)ncnc3cc21
III = O=C(O)Cn1ccc2cc3c(Nc4cccc(Br)c4)ncnc3cc21
Prompt: Place the items in sequence of falling pIC50. Would you mind listing the labels in the order asked for?
Response: I, II, III

* * *

assay.target: UniProtKB P00533
assay.name: Inhibition of the phosphorylation of a random polyglutamic acid/tyrosine copolymer by human epidermal growth factor receptor(EGFR) prepared from human A431 carcinoma cells
pIC50: −log10 of the molar value.
experimental.endpoint: pIC50

structure | experimental.endpoint | observed
Brc1cccc(Nc2ncnc3cc4c(ccn4CCN4CCOCC4)cc23)c1 | pIC50 | 8.43
CN(C)CCn1ncc2cc3c(Nc4cccc(Br)c4)ncnc3cc21 | pIC50 | 7.40
Cn1ncc2cc3c(Nc4cccc(Br)c4)ncnc3cc21 | pIC50 | 9.43

a = CN(CC(=O)O)Cc1c[nH]c2cc3ncnc(Nc4cccc(Br)c4)c3cc12
b = CN(C)Cc1c[nH]c2cc3ncnc(Nc4cccc(Br)c4)c3cc12
Prompt: Min pIC50? a | b // return label of chosen record
Response: b
(b: 8.59, a: 9.14)
